This listing pairs compounds with measured inhibition.
target: Pantothenate synthetase (Mycobacterium tuberculosis (strain ATCC 25618 / H37Rv)); experiment: Coupled enzyme confirmation of inhibitors against recombinant Mtb PanC (AID 375); details: coupled enzyme assay; at 10 µM, stronger effect = higher value;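 note: 0% = full reaction with vehicle and 100% = no enzyme background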
A number alone suffices; assume %.

Examples from the recorded data:
{"columns": ["COMPOUND", "RECORDED RESULT"],
 "data": [
  ["CC(=O)OC(C(=O)NCc1ccco1)c1cccnc1 (stereo unspecified)", 0],
  ["COc1ccc(C(=O)OCC(=O)NCc2ccco2)cc1OC", 0],
  ["Cc1ccc(-c2nn(C)c(=O)c3ccccc23)cc1S(=O)(=O)N1CCOCC1", 9],
  ["COc1ccc(C(O)Cn2c(=N)n(CCCN(C)C)c3ccccc32)cc1 (stereo unspecified)", 0],
  ["N#CC1=C(N)N(c2ccccc2)C2=C(C(=O)CCC2)C1c1cccs1 (stereo unspecified)", 0]
]}

Q) Identify the reported inhibition for the following entry. `CC(C)CCNC(=O)NC(=O)CSc1nnc(COc2ccccc2Cl)o1`
A) 7

Q) Identify the reported inhibition for the following entry. `CCCCn1c(SCC(=O)Nc2cc(C)on2)nnc1-c1cccnc1`
A) 0

Q) Identify the reported inhibition for the following entry. `Cc1ccc(-n2ncc3c(Nc4c(C)n(C)n(-c5ccccc5)c4=O)ncnc32)c(C)c1`
A) 10

====

target: Pantothenate synthetase (Mycobacterium tuberculosis (strain ATCC 25618 / H37Rv)); assay: Coupled enzyme confirmation of inhibitors against recombinant Mtb PanC (AID 375); conditions: coupled enzyme assay; at 10 µM, stronger effect = higher value;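 note: 0% = full reaction with vehicle and 100% = no enzyme background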
READOUT LABEL: inhibition (%)
A number alone suffices; assume %.

Examples from the recorded data:
{"columns": ["COMPOUND", "U", "inhibition"],
 "data": [
  ["CCn1cc(SCC(=O)NCC2CCCO2)c2ccccc21 (stereo not drawn)", "%", 0],
  ["Cc1ccc(-c2nnc(-c3ccc(Br)cc3)o2)o1", "%", 0],
  ["CCCCCn1c2nc3ccccc3nc2c2c(=O)n(CC(C)C)cnc21", "%", 7],
  ["COc1ccc(Cl)cc1N1CC(c2nc3ccccc3[nH]2)CC1=O (stereo not drawn)", "%", 6],
  ["CC(C)OC(=O)CSc1nnc(-c2ccc(C(C)(C)C)cc2)n1N", "%", 0],
  ["Cn1cc(Cl)c(C(=O)NC2CCCC2)n1", "%", 6],
  ["C[C@H]1CCCC(=O)CCC/C=C/c2cc(O)cc(O)c2C(=O)O1", "%", 0],
  ["Cc1cc(NC(c2cccnc2)c2c(C)[nH]c3ccccc23)no1 (stereo not drawn)", "%", 0],
  ["CC1(C)CC(=O)C2=C(C1)Nc1ccccc1N=C2", "%", 0],
  ["COCCn1c(SCc2csc(-c3ccccc3)n2)nc2ccccc21", "%", 5]
]}

Q) Identify the reported inhibition for the following entry. `COc1cc(OC)cc(C(=O)NCc2n[nH]c(=S)n2-c2ccccc2OC)c1`
A) 0

Q) Identify the reported inhibition for the following entry. `CCc1nnc(NC(=O)CSc2nnc(-c3cc4ccccc4cc3O)n2CC)s1`
A) 6

Q) Identify the reported inhibition for the following entry. `COc1cc(C(=O)NCCc2ccc3c(c2)OCCO3)ccc1OCC(=O)N1CCOCC1`
A) 2

Q) Identify the reported inhibition for the following entry. `O=c1[nH]c(NCc2ccco2)nnc1Cc1ccccc1Cl`
A) 0
